Each entry below carries its reported inhibition.
# Species: Cavia porcellus
# PROTOCOL: Inhibition of Na(+)/K(+) ATPase-mediated phosphohydrolase activity in guinea pig myocardium at 5 X 10^-5 M after 30 mins relative to control
# Type: tissue-based
Only the number, expressed in %, is required.

Answered examples (2):
C[C@]12CC[C@@H](O)C[C@H]1CC[C@@H]1[C@@H]2CC[C@]2(C)[C@@H](/C=N\NC(=N)N)CC[C@@H]12    37
C[C@]12CC[C@H]3[C@@H](CCC4=C[C@@H](O)CC[C@@]43C)[C@@H]1CC[C@@H]2/C=N\NC(=N)N    54

Q) Requested field: inhibition. Item: C[C@]12CC[C@H](O)C[C@H]1CC[C@@H]1[C@@H]2CC[C@]2(C)[C@@H](/C=N\NC(=N)N)CC[C@]12O
A) 53

Q) Requested field: inhibition. Item: C[C@]12CC[C@H](O)C[C@H]1CC[C@@H]1[C@@H]2CC[C@]2(C)[C@@H](/C=N\NC(=N)N)CC[C@@H]12
A) 55

Q) Requested field: inhibition. Item: C[C@]12CC[C@H](O)C[C@@H]1CC[C@@H]1[C@@H]2CC[C@]2(C)[C@@H](/C=N\NC(=N)N)CC[C@@H]12
A) 40
